Reference source: ChEMBL document CHEMBL1158320

Molecular target: Androgen receptor (Rattus norvegicus) (UniProt P15207)
Sequence (whole entry): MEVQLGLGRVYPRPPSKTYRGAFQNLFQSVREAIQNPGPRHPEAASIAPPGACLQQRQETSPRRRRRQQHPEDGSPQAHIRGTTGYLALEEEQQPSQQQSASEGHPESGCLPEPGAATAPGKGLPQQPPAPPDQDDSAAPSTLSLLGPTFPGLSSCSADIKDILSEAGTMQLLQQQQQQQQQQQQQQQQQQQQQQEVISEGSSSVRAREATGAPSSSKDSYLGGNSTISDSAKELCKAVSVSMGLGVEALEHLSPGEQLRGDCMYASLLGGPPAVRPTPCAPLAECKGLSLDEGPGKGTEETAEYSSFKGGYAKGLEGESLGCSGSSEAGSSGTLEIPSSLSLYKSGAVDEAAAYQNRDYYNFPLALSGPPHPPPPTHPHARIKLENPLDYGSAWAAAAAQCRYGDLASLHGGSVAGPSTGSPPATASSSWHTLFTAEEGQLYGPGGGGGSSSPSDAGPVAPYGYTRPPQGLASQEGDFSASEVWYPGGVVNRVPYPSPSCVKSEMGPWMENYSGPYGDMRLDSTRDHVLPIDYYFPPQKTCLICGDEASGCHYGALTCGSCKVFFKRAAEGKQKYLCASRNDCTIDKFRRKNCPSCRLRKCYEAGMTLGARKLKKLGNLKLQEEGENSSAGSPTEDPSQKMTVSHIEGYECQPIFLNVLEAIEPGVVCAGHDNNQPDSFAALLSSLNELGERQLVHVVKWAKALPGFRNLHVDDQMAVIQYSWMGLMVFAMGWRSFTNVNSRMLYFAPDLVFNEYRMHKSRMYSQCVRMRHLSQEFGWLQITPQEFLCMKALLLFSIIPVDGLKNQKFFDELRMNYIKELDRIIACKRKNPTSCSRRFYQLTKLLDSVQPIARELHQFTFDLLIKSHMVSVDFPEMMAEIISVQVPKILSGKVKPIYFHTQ
Experiment: Displacement of [3H]dihydrotestosterone from androgen receptor in Wistar rat ventral prostate at 100 ug/mL by liquid scintillation counting
Assay type: tissue-based
Conditions: Prostate gland
Quick reference: inhibition of the listed items.
Quick note: give the figure in %, leave out the unit.

>>> df
                                 cpd_smiles  measured_number
0  COc1cc(O)ccc1[C@H]1Oc2cc3oc(=O)ccc3cc2[C@@H]2C=C(C)C[C@@H](c3ccc(O)cc3)[C@H]12             73.3
1  COc1cc(O)ccc1[C@H]1Oc2cc3oc(=O)ccc3cc2[C@@H]2C=C(C)C[C@@H](c3ccc(O)cc3OC)[C@H]12             70.9
2  COc1cc(O)ccc1[C@@H]1CC(C)=C[C@H]2c3cc4ccc(=O)oc4cc3O[C@H](c3ccc(O)cc3)[C@H]21             57.5

Please find the next molecule below.
[Q] Tell me inhibition reported for "COc1cc(O)ccc1[C@@H]1CC(C)=C[C@H]2c3cc4ccc(=O)oc4cc3O[C@H](c3ccc(O)c(O)c3)[C@H]21"
[A] -8.6

###

Quick reference: inhibition of the listed items.
organism: Rattus norvegicus; assay: Inhibition of 5alpha reductase in Wistar rat ventral prostate at 200 ug/mL by radiochromatography; type: tissue-based; settings: Prostate gland
Field: value (include unit after the number)

# annotated cases, reported inhibition shown
>>> print(df.to_string())
                                 cpd_smiles  result
0  COc1cc(O)ccc1[C@H]1Oc2cc3oc(=O)ccc3cc2[C@@H]2C=C(C)C[C@@H](c3ccc(O)c(O)c3)[C@H]12    5.2%
1  COc1cc(O)ccc1[C@@H]1CC(C)=C[C@H]2c3cc4ccc(=O)oc4cc3O[C@H](c3ccc(O)cc3)[C@H]21   69.2%
2  COc1cc(O)ccc1[C@H]1Oc2cc3oc(=O)ccc3cc2[C@@H]2C=C(C)C[C@@H](c3ccc(O)cc3)[C@H]12   59.2%
3  COc1cc(O)ccc1[C@@H]1CC(C)=C[C@H]2c3cc4ccc(=O)oc4cc3O[C@H](c3ccc(O)c(O)c3)[C@H]21   19.8%

[Q] Tell me inhibition reported for "COc1cc(O)ccc1[C@H]1Oc2cc3oc(=O)ccc3cc2[C@@H]2C=C(C)C[C@@H](c3ccc(O)cc3OC)[C@H]12"
[A] 72.3%

###

species: Rattus norvegicus; experiment: Inhibition of 5alpha reductase in Wistar rat ventral prostate at 50 ug/mL by radiochromatography; assay type: tissue-based; settings: Prostate gland
Assay readout: inhibition (%)
Quick note: give the figure in %, leave out the unit.

[Q] Tell me inhibition reported for "COc1cc(O)ccc1[C@@H]1CC(C)=C[C@H]2c3cc4ccc(=O)oc4cc3O[C@H](c3ccc(O)cc3)[C@H]21"
[A] 3.4

[Q] Tell me inhibition reported for "COc1cc(O)ccc1[C@H]1Oc2cc3oc(=O)ccc3cc2[C@@H]2C=C(C)C[C@@H](c3ccc(O)c(O)c3)[C@H]12"
[A] 0.3

[Q] Tell me inhibition reported for "COc1cc(O)ccc1[C@H]1Oc2cc3oc(=O)ccc3cc2[C@@H]2C=C(C)C[C@@H](c3ccc(O)cc3OC)[C@H]12"
[A] 8.6

[Q] Tell me inhibition reported for "COc1cc(O)ccc1[C@@H]1CC(C)=C[C@H]2c3cc4ccc(=O)oc4cc3O[C@H](c3ccc(O)c(O)c3)[C@H]21"
[A] 0.2

[Q] Tell me inhibition reported for "COc1cc(O)ccc1[C@H]1Oc2cc3oc(=O)ccc3cc2[C@@H]2C=C(C)C[C@@H](c3ccc(O)cc3)[C@H]12"
[A] 5.4

###

Quick reference: inhibition of the listed items.
species on record: Rattus norvegicus; assay: Inhibition of 5alpha reductase in Wistar rat ventral prostate at 100 ug/mL by radiochromatography; assay type: tissue-based; conditions: Prostate gland

>>> df
                                 cpd_smiles  result
0  COc1cc(O)ccc1[C@@H]1CC(C)=C[C@H]2c3cc4ccc(=O)oc4cc3O[C@H](c3ccc(O)cc3)[C@H]21   44.1%

[Q] Tell me inhibition reported for "COc1cc(O)ccc1[C@@H]1CC(C)=C[C@H]2c3cc4ccc(=O)oc4cc3O[C@H](c3ccc(O)c(O)c3)[C@H]21"
[A] 8.4%

[Q] Tell me inhibition reported for "COc1cc(O)ccc1[C@H]1Oc2cc3oc(=O)ccc3cc2[C@@H]2C=C(C)C[C@@H](c3ccc(O)cc3OC)[C@H]12"
[A] 49.9%

[Q] Tell me inhibition reported for "COc1cc(O)ccc1[C@H]1Oc2cc3oc(=O)ccc3cc2[C@@H]2C=C(C)C[C@@H](c3ccc(O)c(O)c3)[C@H]12"
[A] 4.8%

[Q] Tell me inhibition reported for "COc1cc(O)ccc1[C@H]1Oc2cc3oc(=O)ccc3cc2[C@@H]2C=C(C)C[C@@H](c3ccc(O)cc3)[C@H]12"
[A] 28.8%
